- assay: cells
- Format: cell-based
- condition.info: Escherichia coli, HeLa
reported.property: EC50 (nM)
Response body: numeric value in nM, unit text excluded.

[ask] What value of EC50 has been reported for the following compound? CC[C@@H](C(=O)[C@@H](C)[C@@H](O)[C@H](C)CCc1ccc(C)c(O)c1C(=O)O)[C@H]1O[C@](CC)([C@H]2CC[C@](O)(CC)[C@H](C)O2)C[C@@H]1C [LASALOCID]
[reply] 2000

---

- assay: cells
- Format: cell-based
- condition.info: Escherichia coli, HeLa
reported.property: EC50 (µM)
Response body: numeric value in µM, unit text excluded.

[ask] What value of EC50 has been reported for the following compound? CCC(=O)N1CC(=O)Nc2ccc(Br)cc2C1c1ccccc1 (racemic)
[reply] 6.2

[ask] What value of EC50 has been reported for the following compound? Cc1ccc(C2Nc3ccccc3C(=O)N2c2ccccc2)s1 (configuration not stated)
[reply] 27.3

Source of measurements: ChEMBL document CHEMBL4619780
